System: UO-31 renal
Experiment: NCI tumour cell line growth inhibition, 48 h
Some compounds, each annotated with its measured GI50.

- compound: "CCC(C(=O)[O-])C(=O)[O-].CCC(C(=O)[O-])C(=O)[O-].N.N.NCCCCCN.[Pt+4].[Pt+4]"
  GI50: "> 100 µM"
- compound: "COc1ccc(/C=C(/C(=O)N2CCCC2)c2cc(OC)c(OC)c(OC)c2)cc1N"
  GI50: "6.87 µM"
- compound: "O=c1cccc(C#Cc2ccccc2)o1"
  GI50: "3.41 µM"
- compound: "Nc1nc2c(c3ncccc13)C(c1cccc(Cl)c1)Cc1ncccc1-2 (configuration not stated)"
  GI50: "3.98 µM"
- compound: "C=C1C(=O)O[C@H]2[C@H]1CC/C(COC(=O)C(=O)c1c[nH]c3ccc(OC)cc13)=C\\CC[C@@]1(C)O[C@@H]21"
  GI50: "4.6 µM"
- compound: "O=C([O-])c1ccc2c(c1)-c1nc-2nc2[n-]c(nc3nc(nc4[n-]c(n1)c1ccc(C(=O)[O-])cc41)-c1cc(C(=O)[O-])ccc1-3)c1ccc(C(=O)[O-])cc21.[Fe+2]"
  GI50: "> 50 µM"
- compound: "COc1ccc2cc(C(=O)/C=C/c3cccc(Cl)c3Cl)ccc2c1"
  GI50: "10.2 µM"
- compound: "COc1cc(NN=C(c2ccc(O)cc2)c2ccc(O)cc2)c([N+](=O)[O-])cc1[N+](=O)[O-]"
  GI50: "10.4 µM"
- compound: "C=C(CNCCc1ccc(O)cc1)[C@@H]1CC[C@]2(CO)CC[C@]3(C)[C@H](CC[C@@H]4[C@@]5(C)CCC(=O)C(C)(C)[C@@H]5CC[C@]43C)[C@@H]12"
  GI50: "1.3 µM"
- compound: "COc1cc2c3c(n(CCCN4CCN(C)CC4)c(=O)c2cc1OC)-c1cc2c(cc1C3=O)OCO2"
  GI50: "20.6 µM"
- compound: "Nc1ccc(C#Cc2cncnc2Nc2ccc(OCc3cccc(F)c3)c(Cl)c2)cc1"
  GI50: "3.2 µM"
- compound: "CCOC(=O)/C=C1\\SC(=Nc2ccc(C#N)cc2)N(CCN2C(=O)/C(=C/C(=O)OCC)SC2=Nc2ccc(C#N)cc2)C1=O"
  GI50: "2 µM"
- compound: "N#C/C(=C\\c1ccc(Br)cc1)n1nnc2cccc(F)c21"
  GI50: "1.41 µM"
- compound: "CN(C)c1ccc(/C=C/c2sc3ccc4ccccc4c3[n+]2C)cc1"
  GI50: "0.401 µM"
- compound: "COc1cc2cc(Oc3ccc(NC(=O)Nc4ccccc4)cc3)c(C)nc2cc1OCCN1CCCCC1"
  GI50: "3.87 µM"
- compound: "CS(=O)(=O)N1CCN(Cc2cc3nc(-c4cccc5[nH]ncc45)nc(N4CCOCC4)c3s2)CC1 (tested in a mixture with another compound)"
  GI50: "0.0493 µM"
- compound: "CN1CCN(c2ccc(-c3cnc4c(-c5csc6ccccc56)cnn4c3)cc2)CC1"
  GI50: "10.3 µM"

====

Test system: SN12C renal
Assay: NCI tumour cell line growth inhibition, 48 h
Some compounds, each annotated with its measured TGI.

- compound: "CCOC(=O)CCC(C(=O)OCC)n1nc2ccc(Nc3c(C)[n+]([O-])c4cc(Cl)ccc4[n+]3[O-])cc2n1 (stereo unspecified)"
  TGI: "> 100 µM"
- compound: "COC(=O)C1=C(C(=O)OC)C23C=CC=CC24C(C(=O)OC)=C(C(=O)OC)C4C1C3 (stereo unspecified)"
  TGI: "> 100 µM"
- compound: "O=[N+]([O-])c1ccc(NC2OCC(O)C(O)C2O)cc1 (stereo unspecified)"
  TGI: "> 100 µM"
- compound: "N#Cc1c(=O)c2cc([N+](=O)[O-])ccc2n2c1[nH]c1ccccc12"
  TGI: "> 100 µM"
- compound: "O=C(O)Cc1ccc(N2N=C(c3ccccc3)CC2=O)cc1"
  TGI: "> 100 µM"
- compound: "CN(C)C(=O)CC(C(=O)O)c1c[nH]c2ccccc12 (stereo unspecified)"
  TGI: "> 100 µM"
- compound: "Cc1ccc(S(=O)(=O)CNC(=S)CCCC(=S)NCS(=O)(=O)c2ccc(C)cc2)cc1"
  TGI: "> 100 µM"
- compound: "C/C=C(\\C)C(=O)O[C@@H]1C(O)[C@H]2OC(COC(=O)CCC(=O)CCCCCC[C@H](CCCCC)O[C@@H]3OC(C)[C@H](OC(C)=O)C(O)[C@H]3O2)[C@H]1OC(=O)/C=C/c1ccccc1 (stereo partly specified)"
  TGI: "24.1 µM"
- compound: "C=C(C)CCC1CCCCC(CN(C)C)C1=O (stereo unspecified)"
  TGI: "> 100 µM"
- compound: "COc1cc2cc(Oc3ccc(NC(=O)Nc4ccccc4)cc3)c(C)nc2cc1OCCN1CCCCC1"
  TGI: "10.2 µM"
- compound: "CC1=C(C(=O)Nc2ccccc2C)C(c2ccc([N+](=O)[O-])cc2)C(C(=O)Nc2ccccc2C)=C(C)N1"
  TGI: "> 100 µM"
- compound: "Cc1ccc(S(=O)(=O)N2CCC3(C(/C=C/c4ccccc4)=Nc4ccccc43)C2c2ccccc2)cc1 (stereo unspecified)"
  TGI: "> 100 µM"
- compound: "Cc1ccc(NS(=O)(=O)c2cc(C(C)(C)C)ccc2OCCOCCOCCOc2ccc(C(C)(C)C)cc2S(=O)(=O)Nc2ccc(C)cc2)cc1"
  TGI: "> 100 µM"
- compound: "C(CCc1nnc2c(n1)CCCC2)Cc1nnc2c(n1)CCCC2"
  TGI: "> 100 µM"
- compound: "Cc1ccc(/C=C2\\NC(=S)N(CN3CCOCC3)C2=O)cc1"
  TGI: "> 100 µM"
- compound: "CC(C)(C)OC(=O)NCCCCCCCCn1c2c(c3ccccc3c1=O)C(=O)c1ccccc1-2"
  TGI: "> 50 µM"
- compound: "O=C1CC(Br)c2c(Cl)sc(Cl)c21 (stereo unspecified)"
  TGI: "30.6 µM"
- compound: "O=C1/C(=C/c2ccccc2)SC(=Nc2ccccc2)N1Nc1ccccc1"
  TGI: "23.4 µM"
- compound: "Cc1ccc(S(=O)(=O)N2CCSCCSCCN(S(=O)(=O)c3ccc(C)cc3)CCN(S(=O)(=O)c3ccc(C)cc3)CC2)cc1"
  TGI: "> 100 µM"
- compound: "CC(=O)O[C@H]1[C@@H]2[C@@H]3[C@@H](C[C@H]1C)[C@@H](C)CO[C@@]1(C)CC/C=C(/C)C[C@@H]2O[C@@H]31"
  TGI: "> 100 µM"
- compound: "N#CCCC(CC#N)N1CCN(CCO)CC1 (stereo unspecified)"
  TGI: "> 100 µM"
- compound: "COc1cc(/C=C/C(=O)c2cc(F)c(Cl)cc2Cl)cc(OC)c1OC"
  TGI: "> 100 µM"
- compound: "CC1=C/C(=N/N2C(=O)/C(=C/c3ccc(Cl)cc3)N=C2c2ccccc2)CC(C)(C)C1"
  TGI: "> 100 µM"
- compound: "O=C1CN(c2ccc(Cl)cc2)C(=O)CN1CCN1CC(=O)N(c2ccc(Cl)cc2)CC1=O"
  TGI: "> 100 µM"
- compound: "Nc1c(C(=O)c2cccc(OCCN3CCOCC3)c2)cnn1-c1ccc(F)cc1"
  TGI: "> 25 µM"
- compound: "CCOC(OCC)C(CC)[Se]c1ccccc1[N+](=O)[O-] (stereo unspecified)"
  TGI: "> 61.2 µM"
- compound: "Cc1ccc(NC(=O)CC(=O)n2nc(-c3ccccc3)c(N=Nc3ccc(Cl)cc3)c2-c2ccccc2)cc1"
  TGI: "> 100 µM"
- compound: "COc1ccc(/C=C2\\CN(C)CC3=C2OC(N)=C(C#N)C3c2ccc(OC)cc2)cc1 (stereo unspecified)"
  TGI: "> 100 µM"
- compound: "C=C(CNCCc1ccc(O)cc1)[C@@H]1CC[C@]2(CO)CC[C@]3(C)[C@H](CC[C@@H]4[C@@]5(C)CCC(=O)C(C)(C)[C@@H]5CC[C@]43C)[C@@H]12"
  TGI: "3.12 µM"
- compound: "CC(CN)[C@@H]1CC[C@]2(CO)CC[C@]3(C)[C@H](CC[C@@H]4[C@@]5(C)CCC(NCCO)C(C)(C)[C@@H]5CC[C@]43C)[C@@H]12 (stereo partly specified)"
  TGI: "3.61 µM"
- compound: "C#CC(O)/C=C/CCCCCCC#CC/C=C\\CC#CCCCCCC/C=C/C(O)C#C (stereo unspecified)"
  TGI: "4.02 µM"
- compound: "C=C1C(=O)OC2/C=C(\\C)C(O)CC(O)C(C)(O)CC(OC(=O)/C(C)=C/C)C12 (stereo unspecified)"
  TGI: "> 100 µM"
- compound: "O=C(CC/C(C/C(=N/O)c1ccc(F)cc1)=N/O)N(Cc1ccccc1)Cc1ccccc1"
  TGI: "> 100 µM"
- compound: "Cn1c(N2CCCC2)c(C=O)c(=O)n(C)c1=O"
  TGI: "> 100 µM"
- compound: "CCCCCCCCOc1ccc(/C=N/Nc2cc(C)nc3ccc(Cl)cc23)cc1"
  TGI: "3.35 µM"
- compound: "Cc1cc(Cc2cc(C)c(NC(=O)C(=O)C3C(=O)NC(=S)NC3=O)c(C(C)C)c2)cc(C(C)C)c1NC(=O)C(=O)C1C(=O)NC(=S)NC1=O"
  TGI: "> 100 µM"

These data points were gathered from PubChem BioAssay (NCI).
